- System: MDA-MB-435 melanoma
- experimentDescription: NCI-60 one-dose screen, 48 h (100 = growth as untreated, 0 = no growth, -100 = all killed)
- testSettings: 10 µM unless noted
This is part of a sample that, as a whole, favours compounds with a hit. Of some 83,000 tested, about 20% had one in any assay.
measureName: growth (%)
Hi! Could you send only the number? It should be in %, unit omitted.

Known results for compounds:
[[record]]
compound = "O=S(=O)(Nc1ccc(I)cc1Cl)c1ccc(-c2cnc(C3CC3)o2)cc1"
measurename = "growth"
unitabbreviation = "%"
measurement = -4.66

[[record]]
compound = "O=S(=O)(NCCCNc1nccc(-n2cnc3ccccc32)n1)c1ccc(C(F)(F)F)cc1"
measurename = "growth"
unitabbreviation = "%"
measurement = 93.4

[[record]]
compound = "CC1(C)CC[C@]2(C(=O)O)CC[C@]3(C)C(=CC[C@@H]4[C@@]5(C)CC/C(=N\\OCCC#N)C(C)(C)[C@@H]5CC[C@]43C)[C@@H]2C1"
measurename = "growth"
unitabbreviation = "%"
measurement = 101

[[record]]
compound = "NS(=O)(=O)c1ccc(Nc2nc(N/N=C/c3ccc(Cl)cc3)nc(Nc3ccccc3)n2)cc1"
measurename = "growth"
unitabbreviation = "%"
measurement = 57.7

[[record]]
compound = "CNC(=O)c1cc(-c2ccc(NC(=S)Nc3cc(C(F)(F)F)cc(C(F)(F)F)c3)cc2)nc2cccnc12"
measurename = "growth"
unitabbreviation = "%"
measurement = 94.9

[[record]]
compound = "CC(=O)N(C)C1CCc2c(sc(NC(=O)c3ccc(C(C)(C)C)cc3)c2C(N)=O)C1 (stereo not drawn)"
measurename = "growth"
unitabbreviation = "%"
measurement = 83.7


# get_value(readout='growth', item= "Cc1cc(S(=O)(=O)N(C)C)cc(NCC(=O)NC(=O)NCC(C)C)c1C" )
98.8

# get_value(readout='growth', item= "COc1cc(-c2nc(SCCC(C)C)nc(NNC(=O)c3ccncc3)c2C#N)cc(OC)c1OC" )
90.1

###

Quick reference for growth among some compounds
- Tested on: 786-0 renal
- experimentDescription: NCI-60 one-dose screen, 48 h (100 = growth as untreated, 0 = no growth, -100 = all killed)
- testSettings: 10 µM unless noted
Compounds without any hit were thinned out: in the full panel of roughly 83,000, 20% have a hit.
Hi! Could you send only the number? It should be in %, unit omitted.

[[record]]
compound = "N#Cc1cccc(NC(=O)c2cc(-c3ccc(F)cc3F)ccc2O)c1"
measurement = 13.2

[[record]]
compound = "Cc1ccc(C2=Nn3c(nnc3-c3ccccc3)SC2)cc1"
measurement = 46.8


# get_value(readout='growth', item= "C=CCn1c(SCC(=O)Nc2ccc(C(=O)/C=C/c3ccc(C)cc3)cc2)nnc1-c1c[nH]c2ccccc12" )
103

# get_value(readout='growth', item= "O=[N+]([O-])c1cc(/C=N/Nc2nc(N/N=C/c3ccc(Cl)c([N+](=O)[O-])c3)nc(N3CCCCC3)n2)ccc1Cl" )
109

# get_value(readout='growth', item= CC1(C)NCCC[C@]2(C)[C@H]3C/C(=N\O)C4[C@@H]5C[C@@](C)(CO)CC[C@]5(C)CC[C@@]4(C)[C@]3(C)CC[C@@H]12 (stereo not given in full) )
98.4
